- RUN_PARAMETERS: siRNA; also: test system not given here
HELM strings list units from the 5' end as sugar, base in round brackets, then linkage (d deoxyribose, r ribose, m 2'-O-methyl, p phosphodiester). Strings are as the collection lists them, not checked against the first reports. ss, as = sense and antisense strand; [s4r] = 4'-thioribose
Kindly supply the reported target mRNA knockdown values for the records listed here.
Report the value in % with no unit label.

Entry "RNA1{r(A)p.r(A)p.m(U)p.r(A)p.r(A)p.r(G)p.m(C)p.r(A)p.r(G)p.r(C)p.r(U)p.r(C)p.r(G)p.r(C)p.r(G)p.r(C)p.r(U)p.r(C)p.r(C)p.r(T)p.r(T)}|RNA2{r(G)p.r(G)p.r(A)p.r(G)p.r(C)p.r(G)p.r(C)p.r(G)p.r(A)p.r(G)p.r(C)p.m(U)p.r(G)p.r(C)p.m(U)p.r(U)p.r(A)p.r(U)p.r(U)p.r(T)p.r(T)}$$$RNA1{StrandType:ss}|RNA2{StrandType:as}$" ; target mRNA knockdown = 68

Entry "RNA1{[s4r](C)p.[s4r](G)p.[s4r](U)p.[s4r](A)p.[s4r](C)p.[s4r](G)p.r(C)p.r(G)p.r(G)p.r(A)p.r(A)p.r(U)p.r(A)p.[s4r](C)p.[s4r](U)p.[s4r](U)p.[s4r](C)p.[s4r](G)p.[s4r](A)p.r(T)p.r(T)}|RNA2{r(G)p.r(C)p.r(G)p.r(A)p.r(A)p.r(G)p.r(U)p.r(A)p.r(U)p.r(U)p.r(C)p.r(C)p.r(G)p.r(C)p.r(G)p.r(U)p.r(A)p.[s4r](C)p.[s4r](G)p.r(T)p.r(T)}$$$RNA1{StrandType:ss}|RNA2{StrandType:as}$" ; target mRNA knockdown = 74.2

* * *

- RUN_PARAMETERS: siRNA
HELM strings list units from the 5' end as sugar, base in round brackets, then linkage (d deoxyribose, r ribose, m 2'-O-methyl, p phosphodiester). Strings are as the collection lists them, not checked against the first reports. ss, as = sense and antisense strand; [fl2r] = 2'-fluoro
Kindly supply the reported target mRNA knockdown values for the records listed here.
Report the value in % with no unit label.

Entry "RNA1{r(C)p.m(U)p.m(A)p.r(C)p.r(C)p.r(U)p.r(U)p.r(C)p.r(U)p.r(C)p.r(C)p.r(U)p.r(C)p.r(U)p.r(U)p.r(C)p.r(U)p.r(C)p.r(C)p.r(T)p.r(T)}|RNA2{r(G)p.r(G)p.r(A)p.r(G)p.r(A)p.r(A)p.r(G)p.r(A)p.r(G)p.r(G)p.r(A)p.r(G)p.r(A)p.r(A)p.r(G)p.r(G)p.m(U)p.m(A)p.r(G)p.r(T)p.r(T)}$$$RNA1{StrandType:ss}|RNA2{StrandType:as}$" ; target mRNA knockdown = 68

Entry "RNA1{m(A)p.m(A)p.m(G)p.r(G)p.r(A)p.r(G)p.r(A)p.r(U)p.r(C)p.r(A)p.r(A)p.r(C)p.r(A)p.r(U)p.r(U)p.r(U)p.r(U)p.r(C)p.r(A)p.r(T)p.r(T)}|RNA2{m(U)p.m(G)p.m(A)p.r(A)p.r(A)p.r(A)p.r(U)p.r(G)p.r(U)p.r(U)p.r(G)p.r(A)p.r(U)p.r(C)p.r(U)p.r(C)p.r(C)p.r(U)p.r(U)p.r(T)p.r(T)}$$$RNA1{StrandType:ss}|RNA2{StrandType:as}$" ; target mRNA knockdown = 60

Entry "RNA1{r(A)p.r(G)p.r(G)p.r(A)p.r(G)p.r(A)p.r(C)p.r(C)p.r(G)p.[fl2r](U)p.r(G)p.r(A)p.[fl2r](C)p.r(A)p.r(U)p.r(U)p.r(U)p.r(C)p.r(G)p.r(T)p.r(T)}|RNA2{r(C)p.r(G)p.r(A)p.r(A)p.r(A)p.[fl2r](U)p.r(G)p.r(U)p.r(C)p.r(A)p.r(C)p.r(G)p.r(G)p.r(U)p.r(C)p.r(U)p.r(C)p.r(C)p.r(U)p.r(T)p.r(T)}$$$RNA1{StrandType:ss}|RNA2{StrandType:as}$" ; target mRNA knockdown = 72

Entry "RNA1{r(A)p.r(A)p.r(A)p.r(C)p.r(C)p.r(U)p.r(C)p.m(A)p.r(G)p.r(C)p.r(C)p.r(C)p.r(U)p.r(A)p.r(A)p.r(C)p.r(G)p.r(G)p.r(U)p.r(T)p.r(T)}|RNA2{r(A)p.r(C)p.r(C)p.r(G)p.r(U)p.m(U)p.r(A)p.r(G)p.r(G)p.r(G)p.r(C)p.r(U)p.r(G)p.r(A)p.r(G)p.r(G)p.r(U)p.r(U)p.r(U)p.r(T)p.r(T)}$$$RNA1{StrandType:ss}|RNA2{StrandType:as}$" ; target mRNA knockdown = 70

Entry "RNA1{r(A)p.r(A)p.r(C)p.r(C)p.r(C)p.r(A)p.r(C)p.r(C)p.r(A)p.r(C)p.r(A)p.r(G)p.r(C)p.r(U)p.r(A)p.r(G)p.r(A)p.r(A)p.r(C)p.r(U)p.r(U)}|RNA2{r(A)p.r(A)p.r(G)p.[fl2r](U)p.[fl2r](U)p.r(C)p.[fl2r](U)p.r(A)p.r(G)p.r(C)p.r(U)p.r(G)p.[fl2r](U)p.r(G)p.r(G)p.[fl2r](U)p.r(G)p.r(G)p.r(G)p.[fl2r](U)p.[fl2r](U)}$$$RNA1{StrandType:ss}|RNA2{StrandType:as}$" ; target mRNA knockdown = 14

* * *

- RUN_PARAMETERS: siRNA
HELM strings list units from the 5' end as sugar, base in round brackets, then linkage (d deoxyribose, r ribose, m 2'-O-methyl, p phosphodiester). Strings are as the collection lists them, not checked against the first reports. ss, as = sense and antisense strand; [una] = unlocked nucleic acid; [fl2r] = 2'-fluoro
Kindly supply the reported target mRNA knockdown values for the records listed here.
Report the value in % with no unit label.

Entry "RNA1{r(G)p.r(A)p.r(A)p.r(G)p.r(A)p.r(G)p.r(C)p.r(C)p.r(U)p.r(A)p.m(C)p.r(A)p.m(C)p.r(A)p.r(A)p.r(C)p.r(C)p.r(C)p.r(U)p.r(T)p.r(T)}|RNA2{r(A)p.r(G)p.r(G)p.r(G)p.r(U)p.m(U)p.r(G)p.r(U)p.r(G)p.m(U)p.r(A)p.r(G)p.r(G)p.r(C)p.r(U)p.r(C)p.r(U)p.r(U)p.r(C)p.r(T)p.r(T)}$$$RNA1{StrandType:ss}|RNA2{StrandType:as}$" ; target mRNA knockdown = 74

Entry "RNA1{r(C)p.r(C)p.r(A)p.[fl2r](G)p.r(C)p.[fl2r](G)p.r(A)p.[fl2r](G)p.r(C)p.r(C)p.r(C)p.r(A)p.r(A)p.r(A)p.r(A)p.[fl2r](G)p.r(A)p.r(A)p.r(A)p.r(T)p.r(T)}|RNA2{[fl2r](U)p.r(U)p.[fl2r](U)p.r(C)p.[fl2r](U)p.r(U)p.[fl2r](U)p.r(U)p.[fl2r](G)p.r(G)p.[fl2r](G)p.r(C)p.[fl2r](U)p.r(C)p.[fl2r](G)p.r(C)p.[fl2r](U)p.r(G)p.[fl2r](G)p.r(T)p.r(T)}$$$RNA1{StrandType:ss}|RNA2{StrandType:as}$" ; target mRNA knockdown = 35

Entry "RNA1{m(A)p.m(A)p.m(G)p.m(G)p.m(A)p.m(G)p.m(A)p.m(U)p.m(C)p.m(A)p.m(A)p.m(C)p.m(A)p.m(U)p.m(U)p.m(U)p.m(U)p.m(C)p.m(A)p.r(T)p.r(T)}|RNA2{[fl2r](U)p.r(G)p.r(A)p.r(A)p.r(A)p.r(A)p.[fl2r](U)p.r(G)p.r(U)p.r(U)p.r(G)p.r(A)p.[fl2r](U)p.[fl2r](C)p.[fl2r](U)p.[fl2r](C)p.[fl2r](C)p.[fl2r](U)p.[fl2r](U)p.r(T)p.r(T)}$$$RNA1{StrandType:ss}|RNA2{StrandType:as}$" ; target mRNA knockdown = 71

Entry "RNA1{r(A)p.r(G)p.r(A)p.r(A)p.r(A)p.r(C)p.r(G)p.r(C)p.r(A)p.r(G)p.m(U)p.m(A)p.r(A)p.r(U)p.r(C)p.r(C)p.r(G)p.r(G)p.r(A)p.r(T)p.r(T)}|RNA2{r(U)p.r(C)p.r(C)p.r(G)p.r(G)p.r(A)p.r(U)p.m(U)p.r(A)p.r(C)p.r(U)p.r(G)p.r(C)p.r(G)p.r(U)p.r(U)p.r(U)p.r(C)p.r(U)p.r(T)p.r(T)}$$$RNA1{StrandType:ss}|RNA2{StrandType:as}$" ; target mRNA knockdown = 85

Entry "RNA1{r(C)p.r(U)p.r(A)p.r(A)p.r(G)p.r(G)p.r(A)p.r(C)p.r(C)p.r(U)p.r(A)p.r(A)p.r(C)p.r(A)p.r(A)p.r(A)p.r(G)p.r(U)p.[una](U)p.r(U)p.r(U)}|RNA2{r(A)p.r(A)p.r(C)p.r(U)p.r(U)p.r(U)p.r(G)p.r(U)p.r(U)p.r(A)p.r(G)p.r(G)p.r(U)p.r(C)p.r(C)p.r(U)p.r(U)p.r(A)p.r(G)p.r(U)p.r(U)}$$$RNA1{StrandType:ss}|RNA2{StrandType:as}$" ; target mRNA knockdown = 60
